molecular target: AChE from electric eel (EeAChE) (Electrophorus electricus); construct: AChE from electric eel (C3389-500UN; Sigma); purchased Sigma C3389-500UN; assay: AChE activity assay (modified Ellman's method); type: biochemical; details: AChE from electric eel; mean ± SEM, n = 3
# key: entry, value: IC50

molecule | IC50
CC1=NN2C(=O)Oc3c(Br)cc(Cl)cc3C2C1 (centres unmarked) | 13 µM

Let's switch to this molecule now.
For CC1=NN2C(=O)Oc3c(Br)cc(Br)cc3C2C1 (centres unmarked) the molecule record lists IC50 as 10.7 µM

* * *

molecular target: BuChE from equine serum (eqBuChE) (Equus caballus, UniProt P81908); construct: BuChE from equine serum (C4290-1KU; Sigma); purchased Sigma C4290-1KU; host or cells: equine serum; test: BuChE activity assay (modified Ellman's method); type: biochemical, equine (horse); conditions: BuChE from horse serum; 20 µM compound
quantity: inhibition % at 20 µM BuChE
Note: a bare number is incomplete; add the unit.

compound | quantity | observed measurement
O=C1Oc2ccccc2C2CC(c3ccc(F)cc3)=NN12 (stereo not drawn) | inhibition % at 20 µM BuChE | 15 ± 2%
O=C1Oc2ccc(Cl)cc2C2CC(c3ccc(Cl)cc3)=NN12 (stereo not drawn) | inhibition % at 20 µM BuChE | 41 ± 6%
Cc1ccc(C2=NN3C(=O)Oc4ccc(Cl)cc4C3C2)cc1 (stereo not drawn) | inhibition % at 20 µM BuChE | 32 ± 5%
COc1cccc2c1OC(=O)N1N=C(C)CC21 (stereo not drawn) | inhibition % at 20 µM BuChE | 14 ± 3%
CC1=NN2C(=O)Oc3ccc(C)cc3C2C1 (stereo not drawn) | inhibition % at 20 µM BuChE | 14 ± 1%

Summary for this compound, Cc1ccc(C2=NN3C(=O)Oc4ccccc4C3C2)cc1 (stereo not drawn) : inhibition % at 20 µM BuChE is 32 ± 2%

* * *

We begin with a simple list: items and their reported IC50.
target: BuChE from equine serum (eqBuChE) (Equus caballus, UniProt P81908); construct: BuChE from equine serum (C4290-1KU; Sigma); purchased Sigma C4290-1KU; host or cells: equine serum; assay: BuChE activity assay (modified Ellman's method); type: biochemical, equine (horse); settings: BuChE from horse serum; mean ± SEM, n = 3
A number alone suffices; assume µM.

compound | quantity | observed measurement
CC1=NN2C(=O)Oc3c(Br)cccc3C2C1 (stereo not shown) | IC50 | 3.22

Turning to the following compound.
// field: IC50; key: CC1=NN2C(=O)Oc3ccc(Cl)cc3C2C1 (stereo not shown) ; value = 6.29

* * *

pKi values by entry
molecular target: eqBuChE (Equus caballus); construct: BuChE from equine serum (C4290-1KU; Sigma); experiment: Kinetic study of eqBuChE inhibition (Lineweaver-Burk plots); conditions: Lineweaver-Burk secondary plots, inhibitor 5, 10 and 20 µM, read-out: dissociation constant Ki against BuChE
Sequence (P81908 whole entry): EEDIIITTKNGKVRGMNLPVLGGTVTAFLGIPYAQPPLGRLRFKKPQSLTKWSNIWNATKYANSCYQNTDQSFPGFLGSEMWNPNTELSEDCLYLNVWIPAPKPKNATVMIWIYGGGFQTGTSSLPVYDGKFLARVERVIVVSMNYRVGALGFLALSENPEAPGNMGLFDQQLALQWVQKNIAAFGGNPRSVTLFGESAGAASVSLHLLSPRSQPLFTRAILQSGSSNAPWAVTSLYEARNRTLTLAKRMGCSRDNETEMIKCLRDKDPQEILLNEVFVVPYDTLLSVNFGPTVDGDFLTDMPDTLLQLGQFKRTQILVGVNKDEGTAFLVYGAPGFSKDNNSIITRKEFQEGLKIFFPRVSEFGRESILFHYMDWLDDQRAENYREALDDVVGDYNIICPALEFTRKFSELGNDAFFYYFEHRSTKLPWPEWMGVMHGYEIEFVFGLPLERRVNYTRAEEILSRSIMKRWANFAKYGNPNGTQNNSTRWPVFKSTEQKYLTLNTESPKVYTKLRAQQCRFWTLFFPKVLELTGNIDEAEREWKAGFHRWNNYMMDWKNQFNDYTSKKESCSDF
As a rule, pKi stands for the negative log10 of the concentration, concentration in M.

compound | pKi
CC1=NN2C(=O)Oc3c(Cl)cc(Cl)cc3C2C1 (centres unmarked) | 5.13

Entry CC1=NN2C(=O)Oc3ccc(Br)cc3C2C1 (centres unmarked) — recorded pKi = 5.51

* * *

Property: viability at 24 h; scope: individual compounds
experiment: Cytotoxicity MTT assay in PC12 cells; format: cell-based; conditions: rat, 1-50 µM, read-out: relative cell viability (cytotoxicity)

compound | quantity | observed measurement
CC1=NN2C(=O)Oc3c(Cl)cc(Cl)cc3C2C1 (centres unmarked) | viability at 24 h | > 90%

In plain terms, CC1=NN2C(=O)Oc3ccc(Br)cc3C2C1 (centres unmarked) has a documented viability at 24 h of > 90%

* * *

biological target: AChE from electric eel (EeAChE) (Electrophorus electricus); construct: AChE from electric eel (C3389-500UN; Sigma); purchased Sigma C3389-500UN; experiment: AChE activity assay (modified Ellman's method); type: biochemical; conditions: AChE from electric eel; 20 µM compound; read-out: inhibition at 20 µM AChE
quantity: inhibition at 20 µM

Consider the following illustrative entries.
compound | measurement target | inhibition at 20 µM
CC1=NN2C(=O)Oc3ccc(C)cc3C2C1 (centres unmarked) | AChE from electric eel (EeAChE) (Electrophorus electricus) | < 0%
CC1=NN2C(=S)Oc3ccccc3C2C1 (centres unmarked) | AChE from electric eel (EeAChE) (Electrophorus electricus) | < 0%
O=C1Oc2ccccc2C2CC(c3ccccc3)=NN12 (centres unmarked) | AChE from electric eel (EeAChE) (Electrophorus electricus) | < 0%

inhibition at 20 µM of S=C1Oc2ccccc2C2CC(c3ccccc3)=NN12 (centres unmarked) , assay on AChE from electric eel (EeAChE) (Electrophorus electricus), is < 0%

For the compound CC1=NN2C(=O)Oc3c(Br)cccc3C2C1 (centres unmarked) , the measured inhibition at 20 µM on AChE from electric eel (EeAChE) (Electrophorus electricus) was < 0%

* * *

molecular target: AChE from electric eel (EeAChE) (Electrophorus electricus, UniProt O42275); construct: AChE from electric eel (C3389-500UN; Sigma); purchased Sigma C3389-500UN; assay: AChE activity assay (modified Ellman's method); format: biochemical; conditions: AChE from electric eel; 20 µM compound
Sequence (O42275 24-633): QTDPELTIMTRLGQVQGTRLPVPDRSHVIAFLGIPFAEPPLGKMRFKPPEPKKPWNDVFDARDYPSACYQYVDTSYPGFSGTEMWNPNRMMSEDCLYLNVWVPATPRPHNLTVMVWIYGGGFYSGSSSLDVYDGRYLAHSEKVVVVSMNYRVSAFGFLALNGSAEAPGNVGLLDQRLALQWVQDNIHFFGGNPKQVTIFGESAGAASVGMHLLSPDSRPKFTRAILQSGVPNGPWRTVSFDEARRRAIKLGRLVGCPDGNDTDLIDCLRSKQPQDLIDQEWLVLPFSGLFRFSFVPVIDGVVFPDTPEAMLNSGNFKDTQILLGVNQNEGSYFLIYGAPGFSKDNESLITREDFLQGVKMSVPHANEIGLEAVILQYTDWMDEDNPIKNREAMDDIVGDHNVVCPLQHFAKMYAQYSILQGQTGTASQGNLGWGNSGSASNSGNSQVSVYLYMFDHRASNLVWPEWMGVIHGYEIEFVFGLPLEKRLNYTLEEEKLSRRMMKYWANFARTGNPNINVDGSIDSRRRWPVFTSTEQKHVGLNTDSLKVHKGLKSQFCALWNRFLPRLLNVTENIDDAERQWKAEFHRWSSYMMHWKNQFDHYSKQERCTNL
Below, each entry is listed with its recorded inhibition % at 20 µM AChE.
Give your result in % as a bare value.

Below, each entry is followed by its recorded inhibition % at 20 µM AChE result.
molecule | observed measurement
Cc1ccc(C2=NN3C(=O)Oc4ccccc4C3C2)cc1 (stereo not shown) | 48
O=C1Oc2ccc(Cl)cc2C2CC(c3ccc(Cl)cc3)=NN12 (stereo not shown) | 39
Cc1ccc(C2=NN3C(=O)Oc4ccc(Cl)cc4C3C2)cc1 (stereo not shown) | 32

Now for a further molecule.
Field inhibition % at 20 µM AChE (entry O=C1Oc2ccccc2C2CC(c3ccc(F)cc3)=NN12 (stereo not shown) ) reads 15

* * *

target: AChE from electric eel (EeAChE) (Electrophorus electricus, UniProt O42275); construct: AChE from electric eel (C3389-500UN; Sigma); purchased Sigma C3389-500UN; assay: AChE activity assay (modified Ellman's method); format: biochemical; settings: AChE from electric eel; 20 µM compound; read-out: inhibition % at 20 µM AChE
quantity: inhibition at 20 µM

molecule | measurement target | inhibition at 20 µM
COc1cccc2c1OC(=S)N1N=C(C)CC21 (stereo not drawn) | AChE from electric eel (EeAChE) (Electrophorus electricus, UniProt O42275) | 30%
CC1=NN2C(=O)Oc3ccc(Br)cc3C2C1 (stereo not drawn) | AChE from electric eel (EeAChE) (Electrophorus electricus, UniProt O42275) | 26%
CC1=NN2C(=S)Oc3c(Cl)cc(Cl)cc3C2C1 (stereo not drawn) | AChE from electric eel (EeAChE) (Electrophorus electricus, UniProt O42275) | 25%
CC1=NN2C(=S)Oc3ccc(C)cc3C2C1 (stereo not drawn) | AChE from electric eel (EeAChE) (Electrophorus electricus, UniProt O42275) | 15%
CC1=NN2C(=S)Oc3c(Br)cc(Br)cc3C2C1 (stereo not drawn) | AChE from electric eel (EeAChE) (Electrophorus electricus, UniProt O42275) | 26%

# evaluate next
Entry CC1=NN2C(=S)Oc3ccc(Br)cc3C2C1 (stereo not drawn) , AChE from electric eel (EeAChE) (Electrophorus electricus, UniProt O42275) data, inhibition at 20 µM value: 27%

* * *

experiment: Log P assessment (shake flask method, octanol/PBS); type: physicochemical; conditions: octanol/PBS pH 7.4, shake flask, 37 °C
quantity: logP at 24 h
// response body must contain only the number

The examples below pair each entry with its known result.
molecule | logP at 24 h
CC1=NN2C(=O)Oc3ccc(Br)cc3C2C1 (stereo not drawn) | 1.63
CC1=NN2C(=O)Oc3c(Cl)cc(Cl)cc3C2C1 (stereo not drawn) | 1.5

Form: molecule = CC1=NN2C(=O)Oc3c(Br)cc(Br)cc3C2C1 (stereo not drawn) ; logP at 24 h = 1.48

* * *

Measured inhibition at 20 µM values are reported for all entries that follow.
Target: AChE from electric eel (EeAChE) (Electrophorus electricus)
Construct: AChE from electric eel (C3389-500UN; Sigma); purchased Sigma C3389-500UN
Test: AChE activity assay (modified Ellman's method)
Assay type: biochemical
Conditions: AChE from electric eel; 20 µM compound; read-out: inhibition % at 20 µM AChE
Experimental: Enzymatic activity assays were performed on AChE from electric eel (C3389-500UN; Sigma) and BuChE from equine serum (C4290-1KU; Sigma), according to Ellman’s method with light modification. The experiment was performed in 48-well plates in a final volume of 500 µl. […] The absorbance of each assay was measured at 410 nm after 20 min in a Biotek Synergy HTX Multi-Mode reader. The IC50 values were calculated graphically from inhibition curves (log inhibitor concentration vs percent of inhibition). […]
Report the figure along with its unit, number first.

Check out these entries, answers already filled in.
compound | observed measurement
CC1=NN2C(=S)Oc3c(Br)cc(Cl)cc3C2C1 (centres unmarked) | 14%
CC1=NN2C(=O)Oc3ccc(Cl)cc3C2C1 (centres unmarked) | 16%
CC1=NN2C(=O)Oc3c(Cl)cc(Cl)cc3C2C1 (centres unmarked) | 39%
COc1cccc2c1OC(=O)N1N=C(C)CC21 (centres unmarked) | 35%

Consider the record given below.
// inhibition at 20 µM lookup, compound = CC1=NN2C(=S)Oc3ccc(Cl)cc3C2C1 (centres unmarked) , result: 18%
